The reported measurements were obtained from patent US20110224208A1.

For each entry below, report its CC50 at 72 h value.
# test_description: Proliferation of exponentially growing Huh-5-2 cells (MTS method)
# experimental_conditions: human, CC50, concentration required to inhibit the proliferation of exponentially growing Huh-5-2 cells by 50%; Table 2
Provide only the numeric value, understood in µg/mL.

Which measured CC50 at 72 h value corresponds to COCCN1C(=O)c2ccccc2C(C(=O)Nc2cnccn2)C1c1cccs1 (centres unmarked) [C163] ? 81

# lookup: CC50 at 72 h of COCCN1C(=O)c2ccccc2C(C(=O)NCCc2cn(C)c3ccccc23)C1c1cccs1 (centres unmarked) [C44] 28.4

Could you share which CC50 at 72 h value was measured for COCCN1C(=O)c2ccccc2C(C(=O)Nc2cccc(OC)c2)C1c1cccc(F)c1 (centres unmarked) [C8] ? 54.5

Fill in the blank: the reported CC50 at 72 h of COCCN1C(=O)c2ccccc2C(C(=O)Nc2cccc(Cn3ccnc3)c2)C1c1cccs1 (centres unmarked) [C212] is ____. 52.6

For the compound shown here, COCCN1C(=O)c2ccccc2C(C(=O)Nc2cccc(OC)c2)C1c1ccc[nH]1 (centres unmarked) [C29] , give the reported CC50 at 72 h. 54.5

Fill in: CC50 at 72 h of COCCN1C(=O)c2ccccc2C(C(=O)Nc2cccc(Cc3ccccc3)c2)C1c1cccs1 (centres unmarked) [C89] is ___ 0.62

Look at this compound and give its reported CC50 at 72 h. COCCN1C(=O)c2ccccc2C(C(=O)Nc2cccc(OC)c2)C1c1cc(C)on1 (centres unmarked) [C103] 75.2

Data request, read-out CC50 at 72 h, for COc1cccc(NC(=O)C2c3ccccc3C(=O)N(CCO)C2c2cccs2)c1 (centres unmarked) [C23] 118

Which measured CC50 at 72 h value corresponds to COCCN1C(=O)c2ccccc2C(C(=O)N(C)c2cccc(OC)c2)C1c1cccs1 (centres unmarked) [C151] ? 52

Can you look up the measured CC50 at 72 h of COCCN1C(=O)c2ccccc2C(C(=O)Nc2ccc(-n3cccc3)cc2)C1c1cccs1 (centres unmarked) [C116] for me? 72.4

May I ask what CC50 at 72 h has been recorded for COc1cccc(NC(=O)C2c3ccccc3C(=O)N(Cc3ccccc3)C2c2cccs2)c1 (centres unmarked) [C37] ? 92.7

Fill blank: measured CC50 at 72 h of the compound COCCN1C(=O)c2ccccc2C(C(=O)Nc2ccc(Cl)c(OC)c2)C1c1cccs1 (centres unmarked) [C111] is ____. 86.7

Need CC50 at 72 h of COCCN1C(=O)c2ccccc2C(C(=O)Nc2cccc(C(F)(F)F)c2)C1c1cccs1 (centres unmarked) [C110] , thanks. 79.3

Which CC50 at 72 h value is on record for COCCN1C(=O)c2ccccc2C(C(=O)Nc2ccccc2)C1c1cccs1 (centres unmarked) [C18] ? 78.2

GET /values?readout=CC50 at 72 h&item= COCCN1C(=O)c2ccccc2C(C(=O)Nc2ccc3scnc3c2)C1c1cccs1 (centres unmarked) [C81] 65

Tell me the measured CC50 at 72 h of COCCN1C(=O)c2ccccc2C(C(=O)Nc2cccc(OC)c2)C1CC1CCOCC1 (centres unmarked) [C97] , please. 80

Report CC50 at 72 h for COCCN1C(=O)c2ccccc2C(C(=O)Nc2nc3ccc(F)cc3s2)C1c1cccs1 (centres unmarked) [C199] please. 5.97

# query: CC50 at 72 h of entry COCCN1C(=O)c2ccccc2C(C(=O)Nc2nc3ccc(Cl)cc3s2)C1c1cccs1 (centres unmarked) [C202] 7.89

Request the reported CC50 at 72 h associated with COCCN1C(=O)c2ccccc2C(C(=O)Nc2ccc3ncoc3c2)C1c1cccs1 (centres unmarked) [C219] 91.1

Requested field: CC50 at 72 h. Item: COCCN1C(=O)c2ccccc2C(C(=O)Nc2ccc(-n3cncn3)cc2)C1c1cccs1 (centres unmarked) [C167] 60

State the recorded CC50 at 72 h for this entry: COCCN1C(=O)c2ccccc2C(C(=O)Nc2cccc(OC)c2)C1c1cccnc1 (centres unmarked) [C53] 80.8

Please report the recorded CC50 at 72 h for CCOc1cccc(NC(=O)C2c3ccccc3C(=O)N(CCOC)C2c2cccs2)c1 (centres unmarked) [C59] . 88.1
